target or test system: HLA-A*32:01
test summary: IEDB peptide-MHC binding, purified MHC/competitive/radioactivity; filed as Kd, often an IC50 or EC50 that approximates it; bounds were set here for any values at or beyond the usual limits of such assays
run conditions: source organism: Dengue virus 1 Singapore/S275/1990
measured endpoint: pKd
Remember the convention: pKd equals -log10 of concentration in molar.

Documented pKd of `IMAVGIVSI` : 8.00

----------
target or test system: HLA-A*31:01
test summary: IEDB peptide-MHC binding, purified MHC/competitive/radioactivity; filed as Kd, often an IC50 or EC50 that approximates it; bounds were set here for any values at or beyond the usual limits of such assays
run conditions: source organism: Dengue virus 3 Sri Lanka/1266/2000
measured endpoint: pKd
API: returns pKd as number; meaning -log10 of concentration in mol/L.

GET /value?item= `LWRTLGRNKR` &field=pKd returns 6.15
